Hello, the source for this data is the supplement of paper PMC12406974, in case you need it.

Tested on: U2OS;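 note: FLICK assay: SYTOX Green fluorescence of dead cells tracked over time after drugging in 96-well plates, with total cell counts taken from Triton X-100 lysed wells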
PROTOCOL_DETAILS: maximum observed lethal fraction; higher = more cell death
DETAILS: 31.6 µM
METRIC_NAME: maximum observed lethal fraction
Respond using a number only.

Known maximum observed lethal fraction results, listed for orientation:
CNCc1ccc(-c2[nH]c3cc(F)cc4c3c2CCNC4=O)cc1	0.278
C[C@H]1CCC/C=C/[C@@H]2C[C@H](O)C[C@H]2[C@H](O)/C=C/C(=O)O1	0.818
CC[C@@]1(O)C(=O)OCc2c1cc1n(c2=O)Cc2cc3c(CN(C)C)c(O)ccc3nc2-1	0.683
O=C(CCCCCCC(=O)Nc1ccccc1)NO	0.778
COc1cc([C@@H]2c3cc4c(cc3[C@@H](O[C@@H]3O[C@@H]5CO[C@@H](c6cccs6)O[C@H]5[C@H](O)[C@H]3O)[C@H]3COC(=O)[C@H]23)OCO4)cc(OC)c1O [Teniposide]	0.867

Query :: Reported maximum observed lethal fraction, compound "CN(C)CC[C@H](CSc1ccccc1)Nc1ccc(S(=O)(=O)NC(=O)c2ccc(N3CCN(Cc4ccccc4-c4ccc(Cl)cc4)CC3)cc2)cc1[N+](=O)[O-]" : ____
Result :: 0.788

Query :: Field entry: "C/C=C(/C)C(=O)O[C@H]1C(C)=C2[C@H]([C@@H]1OC(=O)CCCCCCC)[C@@](C)(OC(C)=O)C[C@H](OC(=O)CCC)[C@@]1(O)[C@H]2OC(=O)[C@@]1(C)O"
Result :: 0.862

Query :: Field entry: "Cc1cc(Nc2ccc(NC(=O)c3ccc(Nc4ccnc5ccccc45)cc3)cc2)nc(N)n1"
Result :: 0.875

Query :: Field entry: "NC1(C(=O)N[C@@H](CCO)c2ccc(Cl)cc2)CCN(c2nc[nH]c3nccc2-3)CC1"
Result :: 0.201

Query :: Field entry: "O=C(O)C1(C(=O)O)CCC1.[NH2-].[NH2-].[Pt+2]"
Result :: 0.056

Query :: Field entry: "COc1ccc(C[C@H]2NC[C@H](O)[C@H]2OC(C)=O)cc1"
Result :: 0.888

Query :: Field entry: "Nc1cc(C(F)(F)F)c(-c2cc(N3CCOCC3)nc(N3CCOCC3)n2)cn1"
Result :: 0.513

Query :: Field entry: "CC1(C)CCC(CN2CCN(c3ccc(C(=O)NS(=O)(=O)c4ccc(NCC5CCOCC5)c([N+](=O)[O-])c4)c(Oc4cnc5[nH]ccc5c4)c3)CC2)=C(c2ccc(Cl)cc2)C1"
Result :: 0.239

Query :: Field entry: "O=C(NOC[C@H](O)CO)c1ccc(F)c(F)c1Nc1ccc(I)cc1F"
Result :: 0.554

Query :: Field entry: "C=CC(=O)Nc1ccc(C(=O)Nc2[nH]nc3c2CN(C(=O)N[C@H](CN(C)C)c2ccccc2)C3(C)C)cc1"
Result :: 0.461

Query :: Field entry: Nc1ncnc2c1ncn2[C@@H]1O[C@H](CO)C[C@H]1O [Cordycepin]
Result :: 0.0774

Query :: Field entry: "NC(=O)c1cccc2cn(-c3ccc([C@@H]4CCCNC4)cc3)nc12"
Result :: 0.716

Query :: Field entry: "CC1(C)CCC(c2ccc(Cl)cc2)=C(CN2CCN(c3ccc(C(=O)NS(=O)(=O)c4ccc(N[C@H](CCN5CCOCC5)CSc5ccccc5)c(S(=O)(=O)C(F)(F)F)c4)cc3)CC2)C1"
Result :: 0.683

Query :: Field entry: "Nc1ccc(-c2ccc3ncc4ccc(=O)n(-c5cccc(C(F)(F)F)c5)c4c3c2)cn1"
Result :: 0.396

Query :: Field entry: COc1cc([C@@H]2c3cc4c(cc3[C@@H](O[C@@H]3O[C@@H]5CO[C@@H](C)O[C@H]5[C@H](O)[C@H]3O)[C@H]3COC(=O)[C@H]23)OCO4)cc(OC)c1O [Etoposide]
Result :: 0.601
